Where do these numbers come from? They come from paper PMC12040169.

Assay: in vitro
Details: human, hela cells, % viability
This section presents compounds with their documented viability at 28.5 h, 10 µM values.
Give the value in % but do not write % after it.

COMPOUND: CCc1nn(CCC(C)O)c(=O)c2cc3sc(C)cc3n12 (stereo not drawn)
viability at 28.5 h, 10 µM, %: 89.1

COMPOUND: Cc1cc(C)cc(CNC(=O)NCCc2cccs2)c1
viability at 28.5 h, 10 µM, %: 103

COMPOUND: CCOC(=O)C(NCCc1ccc(OC)c(OC)c1)(NC(=O)c1ccco1)C(F)(F)F (stereo not drawn)
viability at 28.5 h, 10 µM, %: 123

[Q] Please report the recorded viability at 28.5 h, 10 µM for O=c1cc(O)c2cc([N+](=O)[O-])ccc2n1CCc1ccccc1 .
[A] 90.8

[Q] Please report the recorded viability at 28.5 h, 10 µM for O=c1[nH]c2ncc(-c3cccc4cccnc34)nc2n1Cc1cccnc1 .
[A] 58.9

[Q] Please report the recorded viability at 28.5 h, 10 µM for COCCN1CC2=C(C1=O)C(c1ccc(F)cc1)NC(=O)N2 (stereo not drawn) .
[A] 81.9

[Q] Please report the recorded viability at 28.5 h, 10 µM for NC(=O)CN1CCC[C@@H]2NC(=O)COc3ccccc3C(=O)N[C@@H]3CCOC[C@@H]3C/C=C/C[C@@H]21 .
[A] 103

[Q] Please report the recorded viability at 28.5 h, 10 µM for COc1ccc(S(=O)(=O)Nc2cccc(C(=O)N3CCOCC3)c2)cc1OC .
[A] 82.7

[Q] Please report the recorded viability at 28.5 h, 10 µM for O=c1c(N2CCCNCC2)nccn1CCOc1ccc(Oc2ccccc2)cc1 [CBK028615T] .
[A] 101
